Every entry's value here was drawn from the kinase profiling compilation of Christmann-Franck et al. (2016).

- target-under-test: SRC (human)
attribute-measured: IC50

Short answer please: IC50, SRC (human), entry `CN1CC[C@H](c2c(O)cc(O)c3c(=O)cc(-c4ccccc4Cl)oc23)[C@H](O)C1`
> 10 µM

====

Measured pIC50 (ATM (human) (UniProt Q13315))
pIC50: −log10 of the molar value.

molecule: CN[C@@H]1C[C@H]2O[C@@](C)([C@@H]1OC)n1c3ccccc3c3c4c(c5c6ccccc6n2c5c31)C(=O)NC4
attribute-measured: pIC50
test-result: < 5.00

What measured pIC50 goes with `CC[C@@H](CO)Nc1nc(NCc2ccccc2)c2ncn(C(C)C)c2n1` ?
< 5.00

====

- target-under-test: SIK3 (human)
pIC50: −log10 of the molar value.
attribute-measured: pIC50

May I ask what pIC50 has been recorded for `CN1CC[C@H](c2c(O)cc(O)c3c(=O)cc(-c4ccccc4Cl)oc23)[C@H](O)C1` ?
< 5.00

====

- target-under-test: WEE1 (human)
attribute-measured: IC50

Given the entry `CN1CC[C@H](c2c(O)cc(O)c3c(=O)cc(-c4ccccc4Cl)oc23)[C@H](O)C1` , what IC50 was observed with WEE1 (human)?
> 10 µM

====

- target-under-test: STK4 (human) (UniProt Q13043)
- Sequence (Q13043 whole entry, looked up): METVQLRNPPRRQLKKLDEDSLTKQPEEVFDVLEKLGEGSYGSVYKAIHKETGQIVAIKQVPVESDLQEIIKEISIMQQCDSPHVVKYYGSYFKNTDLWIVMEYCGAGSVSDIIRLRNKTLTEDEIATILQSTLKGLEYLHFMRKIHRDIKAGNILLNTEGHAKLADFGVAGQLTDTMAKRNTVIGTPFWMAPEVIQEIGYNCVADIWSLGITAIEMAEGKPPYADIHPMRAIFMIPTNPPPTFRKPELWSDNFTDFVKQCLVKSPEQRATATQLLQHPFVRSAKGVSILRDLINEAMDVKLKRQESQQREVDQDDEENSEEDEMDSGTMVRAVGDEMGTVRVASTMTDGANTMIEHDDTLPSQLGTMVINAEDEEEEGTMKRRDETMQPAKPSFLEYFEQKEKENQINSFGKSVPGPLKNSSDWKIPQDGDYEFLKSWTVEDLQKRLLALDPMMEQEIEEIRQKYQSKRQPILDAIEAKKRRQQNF
attribute-measured: IC50

What value of IC50 on STK4 (human) (UniProt Q13043) does `CN1CC[C@H](c2c(O)cc(O)c3c(=O)cc(-c4ccccc4Cl)oc23)[C@H](O)C1` have?
> 10 µM

====

- target-under-test: JAK1 JH1 JH2 (human) (UniProt P23458)
- Sequence (P23458 whole entry, looked up): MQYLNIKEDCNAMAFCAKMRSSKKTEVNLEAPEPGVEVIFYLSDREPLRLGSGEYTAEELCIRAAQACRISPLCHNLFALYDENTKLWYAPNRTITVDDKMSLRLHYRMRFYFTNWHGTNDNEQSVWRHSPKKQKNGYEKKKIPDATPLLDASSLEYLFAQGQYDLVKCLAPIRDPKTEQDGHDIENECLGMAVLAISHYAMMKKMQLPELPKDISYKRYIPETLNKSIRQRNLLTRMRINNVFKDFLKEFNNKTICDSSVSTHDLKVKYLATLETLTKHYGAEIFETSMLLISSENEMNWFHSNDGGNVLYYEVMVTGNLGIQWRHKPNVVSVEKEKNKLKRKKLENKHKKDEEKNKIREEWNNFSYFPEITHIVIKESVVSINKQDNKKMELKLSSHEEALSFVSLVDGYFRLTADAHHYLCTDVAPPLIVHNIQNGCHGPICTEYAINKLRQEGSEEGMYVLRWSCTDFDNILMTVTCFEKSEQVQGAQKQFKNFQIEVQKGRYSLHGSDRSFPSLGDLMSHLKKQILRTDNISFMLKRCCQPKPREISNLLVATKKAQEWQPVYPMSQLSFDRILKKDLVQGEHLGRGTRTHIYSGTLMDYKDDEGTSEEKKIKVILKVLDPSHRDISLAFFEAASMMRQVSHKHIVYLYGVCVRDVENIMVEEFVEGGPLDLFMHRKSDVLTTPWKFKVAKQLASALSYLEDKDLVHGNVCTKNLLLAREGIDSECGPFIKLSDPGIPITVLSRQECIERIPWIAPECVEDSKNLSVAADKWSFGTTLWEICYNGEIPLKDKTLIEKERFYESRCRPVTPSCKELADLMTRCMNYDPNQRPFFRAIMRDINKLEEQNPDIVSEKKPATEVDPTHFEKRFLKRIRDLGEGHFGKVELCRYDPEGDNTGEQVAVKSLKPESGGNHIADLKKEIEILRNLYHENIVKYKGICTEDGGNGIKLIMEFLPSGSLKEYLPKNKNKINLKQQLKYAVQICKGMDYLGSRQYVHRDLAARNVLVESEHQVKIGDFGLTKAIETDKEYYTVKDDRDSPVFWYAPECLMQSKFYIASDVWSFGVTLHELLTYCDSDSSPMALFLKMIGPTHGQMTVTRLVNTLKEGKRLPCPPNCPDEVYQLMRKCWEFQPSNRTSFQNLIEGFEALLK
attribute-measured: IC50

// fetch JAK1 JH1 JH2 (human) (UniProt P23458) IC50 for `CN1CC[C@H](c2c(O)cc(O)c3c(=O)cc(-c4ccccc4Cl)oc23)[C@H](O)C1`
> 10 µM

====

- target-under-test: UniProt:P10398
- Sequence (P10398 whole entry, looked up): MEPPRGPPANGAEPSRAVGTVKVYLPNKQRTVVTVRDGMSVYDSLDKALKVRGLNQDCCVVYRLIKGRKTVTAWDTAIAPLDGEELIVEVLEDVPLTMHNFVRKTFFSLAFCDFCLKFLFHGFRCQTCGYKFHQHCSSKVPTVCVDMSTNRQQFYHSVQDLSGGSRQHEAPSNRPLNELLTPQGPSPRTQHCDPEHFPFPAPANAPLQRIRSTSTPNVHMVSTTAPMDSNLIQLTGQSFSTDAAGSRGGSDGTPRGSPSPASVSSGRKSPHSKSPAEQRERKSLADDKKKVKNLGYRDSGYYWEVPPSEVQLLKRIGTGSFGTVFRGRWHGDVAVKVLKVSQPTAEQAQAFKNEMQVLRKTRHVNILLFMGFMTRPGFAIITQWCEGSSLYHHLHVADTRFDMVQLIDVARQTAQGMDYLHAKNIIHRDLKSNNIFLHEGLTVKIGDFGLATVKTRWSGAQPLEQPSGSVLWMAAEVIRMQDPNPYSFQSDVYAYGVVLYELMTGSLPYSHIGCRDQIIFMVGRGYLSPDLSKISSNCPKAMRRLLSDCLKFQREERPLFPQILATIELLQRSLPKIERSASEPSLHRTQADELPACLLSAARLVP
attribute-measured: IC50

API: value(readout= IC50, system= UniProt:P10398, query= `CN[C@@H]1C[C@H]2O[C@@](C)([C@@H]1OC)n1c3ccccc3c3c4c(c5c6ccccc6n2c5c31)C(=O)NC4` )
> 10 µM

====

- target-under-test: PRKD2 (human) (UniProt Q9BZL6)
- Sequence (Q9BZL6 whole entry, looked up): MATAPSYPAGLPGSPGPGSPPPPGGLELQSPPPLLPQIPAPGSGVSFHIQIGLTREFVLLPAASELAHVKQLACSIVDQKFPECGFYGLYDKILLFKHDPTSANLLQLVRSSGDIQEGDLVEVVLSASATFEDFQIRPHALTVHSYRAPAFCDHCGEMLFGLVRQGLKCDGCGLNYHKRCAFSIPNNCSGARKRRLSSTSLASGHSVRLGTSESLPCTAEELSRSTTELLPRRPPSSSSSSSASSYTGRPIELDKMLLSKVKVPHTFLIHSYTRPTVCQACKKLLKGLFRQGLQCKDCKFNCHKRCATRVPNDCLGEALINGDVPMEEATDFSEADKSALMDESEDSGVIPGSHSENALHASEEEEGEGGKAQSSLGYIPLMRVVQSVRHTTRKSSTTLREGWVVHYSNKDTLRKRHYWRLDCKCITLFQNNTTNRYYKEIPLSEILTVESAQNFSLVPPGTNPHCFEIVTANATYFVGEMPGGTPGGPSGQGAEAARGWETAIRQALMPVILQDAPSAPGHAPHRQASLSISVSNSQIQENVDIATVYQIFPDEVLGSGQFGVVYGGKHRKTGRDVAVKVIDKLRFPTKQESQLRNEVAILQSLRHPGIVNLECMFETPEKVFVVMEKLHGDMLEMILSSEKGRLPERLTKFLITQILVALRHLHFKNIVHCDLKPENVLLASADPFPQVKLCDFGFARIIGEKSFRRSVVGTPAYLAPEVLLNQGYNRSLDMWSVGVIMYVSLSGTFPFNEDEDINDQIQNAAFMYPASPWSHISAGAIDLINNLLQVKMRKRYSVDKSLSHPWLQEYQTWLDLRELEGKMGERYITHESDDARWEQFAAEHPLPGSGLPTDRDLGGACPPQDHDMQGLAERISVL
attribute-measured: pIC50
Recall that pIC50 is obtained by taking minus log10 of the concentration measured in molar.

I'm curious: which pIC50 was measured for `CN1CC[C@H](c2c(O)cc(O)c3c(=O)cc(-c4ccccc4Cl)oc23)[C@H](O)C1` tested on PRKD2 (human) (UniProt Q9BZL6)?
5.90

====

- target-under-test: CDK14 (human) (UniProt O94921)
- Sequence (O94921 whole entry, looked up): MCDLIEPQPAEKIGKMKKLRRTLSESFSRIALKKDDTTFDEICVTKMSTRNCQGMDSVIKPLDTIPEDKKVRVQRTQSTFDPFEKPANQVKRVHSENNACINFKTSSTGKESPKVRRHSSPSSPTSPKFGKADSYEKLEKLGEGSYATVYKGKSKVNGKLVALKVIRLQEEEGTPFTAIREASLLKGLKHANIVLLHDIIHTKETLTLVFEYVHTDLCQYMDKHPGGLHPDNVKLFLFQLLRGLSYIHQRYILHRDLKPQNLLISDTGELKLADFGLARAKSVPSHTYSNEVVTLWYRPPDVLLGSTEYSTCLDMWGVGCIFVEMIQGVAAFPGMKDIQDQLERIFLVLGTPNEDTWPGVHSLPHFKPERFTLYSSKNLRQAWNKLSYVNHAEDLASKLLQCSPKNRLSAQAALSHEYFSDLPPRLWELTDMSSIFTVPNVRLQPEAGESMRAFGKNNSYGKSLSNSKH
attribute-measured: pIC50
Remember the convention: pIC50 equals -log10 of concentration in molar.

Reported pIC50, compound `CN1CC[C@H](c2c(O)cc(O)c3c(=O)cc(-c4ccccc4Cl)oc23)[C@H](O)C1` : ____
5.53

====

- target-under-test: STK10 (human)
attribute-measured: IC50

Field: IC50 (STK10 (human)). Entry: `CN1CC[C@H](c2c(O)cc(O)c3c(=O)cc(-c4ccccc4Cl)oc23)[C@H](O)C1`
> 10 µM

====

- target-under-test: PRKAA1 (human) (UniProt Q13131)
- Sequence (Q13131 whole entry, looked up): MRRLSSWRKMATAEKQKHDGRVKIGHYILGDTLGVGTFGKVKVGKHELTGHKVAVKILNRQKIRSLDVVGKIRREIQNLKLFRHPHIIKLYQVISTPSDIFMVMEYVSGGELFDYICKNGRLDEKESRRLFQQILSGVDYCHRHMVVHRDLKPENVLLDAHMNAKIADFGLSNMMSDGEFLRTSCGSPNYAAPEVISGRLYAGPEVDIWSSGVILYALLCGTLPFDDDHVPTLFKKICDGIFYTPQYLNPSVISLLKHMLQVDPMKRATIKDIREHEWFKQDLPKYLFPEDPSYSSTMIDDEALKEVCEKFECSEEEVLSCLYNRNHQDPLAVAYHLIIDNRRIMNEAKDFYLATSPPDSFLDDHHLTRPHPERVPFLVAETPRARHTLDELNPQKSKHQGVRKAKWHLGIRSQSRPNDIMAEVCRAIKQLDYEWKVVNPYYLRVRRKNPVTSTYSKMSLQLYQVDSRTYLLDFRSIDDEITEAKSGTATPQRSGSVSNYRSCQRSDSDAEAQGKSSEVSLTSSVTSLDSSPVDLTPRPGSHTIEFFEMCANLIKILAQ
pIC50: −log10 of the molar value.
attribute-measured: pIC50

Give recorded pIC50 with PRKAA1 (human) (UniProt Q13131) for the following compound: `CN1CC[C@H](c2c(O)cc(O)c3c(=O)cc(-c4ccccc4Cl)oc23)[C@H](O)C1`
< 5.00

====

- target-under-test: RPS6KA5 KD1 KD2 (human)
attribute-measured: IC50

Which measured IC50 belongs to `CN1CC[C@H](c2c(O)cc(O)c3c(=O)cc(-c4ccccc4Cl)oc23)[C@H](O)C1` , tested on RPS6KA5 KD1 KD2 (human)?
> 10 µM

====

- target-under-test: MAP2K6 (human)
attribute-measured: IC50

Please give the measured IC50 for this compound: `CN1CC[C@H](c2c(O)cc(O)c3c(=O)cc(-c4ccccc4Cl)oc23)[C@H](O)C1`
> 10 µM

====

- target-under-test: UniProt:P16591
- Sequence (P16591 whole entry, looked up): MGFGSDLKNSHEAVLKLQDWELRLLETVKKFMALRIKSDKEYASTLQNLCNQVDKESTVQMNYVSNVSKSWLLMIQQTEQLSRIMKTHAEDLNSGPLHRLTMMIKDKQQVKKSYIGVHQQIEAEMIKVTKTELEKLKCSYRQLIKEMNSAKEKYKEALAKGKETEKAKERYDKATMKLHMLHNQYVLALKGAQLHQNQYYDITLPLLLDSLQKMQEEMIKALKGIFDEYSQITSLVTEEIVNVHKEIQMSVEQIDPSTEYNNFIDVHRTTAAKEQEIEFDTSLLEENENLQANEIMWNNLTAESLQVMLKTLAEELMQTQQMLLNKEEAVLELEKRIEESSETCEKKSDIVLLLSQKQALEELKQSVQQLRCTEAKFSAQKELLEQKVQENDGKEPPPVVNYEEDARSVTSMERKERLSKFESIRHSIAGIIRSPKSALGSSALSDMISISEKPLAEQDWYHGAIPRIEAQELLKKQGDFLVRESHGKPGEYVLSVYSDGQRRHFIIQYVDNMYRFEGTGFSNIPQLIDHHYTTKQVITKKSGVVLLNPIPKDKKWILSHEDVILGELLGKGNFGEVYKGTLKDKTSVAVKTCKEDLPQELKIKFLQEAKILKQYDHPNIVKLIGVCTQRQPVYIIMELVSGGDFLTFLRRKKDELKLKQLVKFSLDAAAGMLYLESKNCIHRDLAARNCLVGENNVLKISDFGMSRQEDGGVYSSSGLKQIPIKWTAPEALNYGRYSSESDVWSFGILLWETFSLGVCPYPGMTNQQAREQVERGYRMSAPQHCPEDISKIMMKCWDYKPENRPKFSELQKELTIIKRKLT
attribute-measured: IC50

Which IC50 value belongs to `CN1CC[C@H](c2c(O)cc(O)c3c(=O)cc(-c4ccccc4Cl)oc23)[C@H](O)C1` ?
> 10 µM
